- experiment-summary: Solubility of the compound
- Format: physicochemical
Give measured solubility for each item. Keep answers brief.
// return numeric value only (unit: µg/mL, not printed)

Lab book: solubility of CCc1c(CCCC(=O)O)cccc1-c1noc(-c2ccc(OC(C)C)c(C#N)c2)n1 noted as 46

Lab book: solubility of CCc1c(CCCC(=O)O)cccc1-c1ccc(-c2ccc(OC(C)C)c(C#N)c2)cc1 noted as 154

Lab book: solubility of CCc1c(CCCC(=O)O)cccc1-c1cnc(-c2ccc(OC(C)C)c(C#N)c2)s1 noted as 125

Lab book: solubility of CCc1c(CCCC(=O)O)cccc1-c1nsc(-c2ccc(OC(C)C)c(C#N)c2)n1 noted as 160

Lab book: solubility of CCc1c(CCCC(=O)O)cccc1-c1ccc(-c2ccc(OC(C)C)c(C#N)c2)s1 noted as 115

====

- experiment-summary: Percentage unbound in human plasma
- Type: ADME, cell-free
Give measured fraction unbound for each item. Keep answers brief.
When you answer, write just the number.

Lab book: fraction unbound of CCc1c(CN2CC(C(=O)O)C2)cccc1-c1nsc(-c2ccc(CC(C)C)c(C#N)c2)n1 noted as 0.0128

Lab book: fraction unbound of CCc1c(CCN2CC(C(=O)O)C2)cccc1-c1nsc(-c2ccc(OC(C)C)c(C(F)(F)F)c2)n1 noted as 0.0025

Lab book: fraction unbound of CCc1c(CCN2CCC(C(=O)O)CC2)cccc1-c1nsc(-c2ccc(OC(C)C)c(C(F)(F)F)c2)n1 noted as 0.0017

Lab book: fraction unbound of CCc1c(CCCC(=O)O)cccc1-c1nnc(-c2ccc(OC(C)C)c(C#N)c2)s1 noted as 0.0051

Lab book: fraction unbound of CCc1c(CCCC(=O)O)cccc1-c1nsc(-c2ccc(CC(C)C)c(C#N)c2)n1 noted as 0.0003

Lab book: fraction unbound of CCc1c(CCN2CCCCC2)cccc1-c1nsc(-c2ccc(CC(C)C)c(C#N)c2)n1 noted as 0.00017

Lab book: fraction unbound of CCc1c(CCN2CCC(C(=O)O)CC2)cccc1-c1nsc(-c2ccc(OC(C)C)c(Cl)c2)n1 noted as 0.0045

Lab book: fraction unbound of CCc1c(CN(C)C(C)(C)C(=O)O)cccc1-c1nsc(-c2ccc(OC(C)C)c(C(F)(F)F)c2)n1 noted as 4e-05

Lab book: fraction unbound of CCc1c(CCCC(=O)O)cccc1-c1nsc(-c2ccc(OC(C)C)c(C(F)(F)F)c2)n1 noted as 0.00014

====

Give measured Papp for each item. Keep answers brief.
- experiment-summary: Permeability of the compound
- Format: ADME
- condition-notes: not told; read-out: permeability
// return numeric value only (unit: ×10⁻⁶ cm/s, not printed)

Lab book: Papp of CCc1c(CCCC(=O)O)cccc1-c1noc(-c2ccc(OC(C)C)c(C#N)c2)n1 noted as 34.5

Lab book: Papp of CCc1c(CCCC(=O)O)cccc1-c1nnc(-c2ccc(OC(C)C)c(C#N)c2)o1 noted as 24

Lab book: Papp of CCc1c(CCCC(=O)O)cccc1-c1ccc(-c2ccc(OC(C)C)c(C#N)c2)cc1 noted as 31

Lab book: Papp of CCc1c(CCCC(=O)O)cccc1-c1cnc(-c2ccc(OC(C)C)c(C#N)c2)s1 noted as 22

Lab book: Papp of CCc1c(CCCC(=O)O)cccc1-c1ccc(-c2ccc(OC(C)C)c(C#N)c2)s1 noted as 30

Lab book: Papp of CCc1c(CCCC(=O)O)cccc1-c1nnc(-c2ccc(OC(C)C)c(C#N)c2)s1 noted as 23

Lab book: Papp of CCc1c(CCCC(=O)O)cccc1-c1cnc(-c2ccc(OC(C)C)c(C#N)c2)nc1 noted as 19

Lab book: Papp of CCc1c(CCCC(=O)O)cccc1-c1nsc(-c2ccc(OC(C)C)c(C#N)c2)n1 noted as 32
